Listing of entries alongside the reported pIC50.
target: Kv1.2 (Homo sapiens); construct: expressed in transfected cells; assay: Patch clamp assay (QPatch), Kv1.2; format: cell-based; details: QPatch; CHO cells stably expressing human Kv1.2; read-out: Potency IC50, Kv1.2
Sequence (P16389 whole entry): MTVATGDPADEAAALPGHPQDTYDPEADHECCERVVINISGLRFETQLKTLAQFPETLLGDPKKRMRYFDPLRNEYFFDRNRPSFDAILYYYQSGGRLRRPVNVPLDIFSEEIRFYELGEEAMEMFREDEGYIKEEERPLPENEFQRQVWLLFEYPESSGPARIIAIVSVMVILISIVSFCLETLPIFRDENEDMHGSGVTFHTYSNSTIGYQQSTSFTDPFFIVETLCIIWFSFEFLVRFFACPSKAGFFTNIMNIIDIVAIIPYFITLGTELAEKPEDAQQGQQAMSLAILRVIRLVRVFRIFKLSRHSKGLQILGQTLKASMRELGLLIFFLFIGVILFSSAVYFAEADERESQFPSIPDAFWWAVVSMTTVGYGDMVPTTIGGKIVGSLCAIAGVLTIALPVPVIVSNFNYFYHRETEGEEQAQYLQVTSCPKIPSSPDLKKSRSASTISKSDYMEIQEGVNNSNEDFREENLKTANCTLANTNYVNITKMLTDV
pIC50 (log units): -log10 of the concentration in mol/L.

Below, 3 substances whose answers are already recorded.
substance="H-NMDMRC(1)SASVEC(2)KEKC(3)LKAIGSIFGKC(1)MNKKC(2)KC(3)YPR-NH2 [Peptide 32]" assay_system="Kv1.2 (Homo sapiens)" quantitative_result=6.75
substance="H-S[Nle]DERC(1)SASVEC(2)KQKC(3)LKAIGSIFGKC(1)MNKKC(2)KC(3)YPR-NH2 [Peptide 78]" assay_system="Kv1.2 (Homo sapiens)" quantitative_result=6.91
substance="H-N[Nle]D[Nle]RC(1)SASKEC(2)KQKC(3)LKAIGSIFGKC(1)[Nle]NKKC(2)KC(3)YPR-NH2 [Peptide 64]" assay_system="Kv1.2 (Homo sapiens)" quantitative_result=6.74

# pIC50 (substance: H-NMDMRC(1)SASVEC(2)KQKC(3)LKAIGSIFGKC(1)[Nle]NKKC(2)KC(3)YPR-NH2 [Peptide 17] ) is 6.88

# pIC50 (substance: H-PIE[Nle]RC(1)SASVEC(2)KQKC(3)LKAIGSIFGKC(1)[Nle]NKKC(2)KC(3)YPR-OH [Peptide 99] ) is 5.75

---

Listing of entries alongside the reported Selectivity Kv1.1/Kv1.3.
target: Kv1.1 (Homo sapiens); construct: expressed in transfected cells; assay: Patch clamp assay (QPatch), Kv1.1; assay type: cell-based; conditions: ratio of IC50 Kv1.1/Kv1.3
Sequence (Q09470 whole entry): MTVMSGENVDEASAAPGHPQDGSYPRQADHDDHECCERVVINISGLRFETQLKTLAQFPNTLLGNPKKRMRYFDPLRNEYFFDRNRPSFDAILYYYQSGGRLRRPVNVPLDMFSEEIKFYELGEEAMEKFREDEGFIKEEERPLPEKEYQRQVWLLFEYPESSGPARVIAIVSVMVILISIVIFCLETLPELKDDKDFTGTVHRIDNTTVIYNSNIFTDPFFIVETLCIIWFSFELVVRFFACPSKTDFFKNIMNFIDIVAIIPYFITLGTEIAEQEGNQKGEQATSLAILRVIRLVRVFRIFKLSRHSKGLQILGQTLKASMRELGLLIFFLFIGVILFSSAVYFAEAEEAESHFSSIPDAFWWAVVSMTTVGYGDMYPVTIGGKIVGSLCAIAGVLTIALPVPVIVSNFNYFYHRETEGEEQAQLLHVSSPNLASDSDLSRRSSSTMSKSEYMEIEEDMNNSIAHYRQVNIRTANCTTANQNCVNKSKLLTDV

Below, 3 substances whose answers are already recorded.
substance="H-NMDMRC(1)SASVEC(2)KQKC(3)LKAIGSKFGKC(1)MNKKC(2)KC(3)YPR-NH2 [Peptide 35]" assay_system="Kv1.1 (Homo sapiens)" result=>7100
substance="H-NMDMRC(1)SASVEC(2)KQKC(3)LKAIESIFGKC(1)MNKKC(2)KC(3)YPR-NH2 [Peptide 23]" assay_system="Kv1.1 (Homo sapiens)" result=>10200
substance="H-NMDMRC(1)SASVEC(2)LQKC(3)LKAIGSIFGKC(1)MNKKC(2)KC(3)YPR-NH2 [Peptide 30]" assay_system="Kv1.1 (Homo sapiens)" result=>7400

Okay, now this substance:
Bench note, Kv1.1 (Homo sapiens): entry H-NMEMRC(1)SASVEC(2)KQKC(3)LKAIGSIFGKC(1)MNKKC(2)KC(3)YPR-OH [Peptide 13] , its Selectivity Kv1.1/Kv1.3 = >27600

---

Listing of entries alongside the reported pIC50.
target: Kv1.3 (Homo sapiens, UniProt P22001); construct: expressed in transfected cells; assay: Patch clamp assay (QPatch), Kv1.3; format: cell-based; conditions: CHO cells stably expressing human Kv1.3, read-out: Potency IC50, Kv1.3
Sequence (P22001 whole entry): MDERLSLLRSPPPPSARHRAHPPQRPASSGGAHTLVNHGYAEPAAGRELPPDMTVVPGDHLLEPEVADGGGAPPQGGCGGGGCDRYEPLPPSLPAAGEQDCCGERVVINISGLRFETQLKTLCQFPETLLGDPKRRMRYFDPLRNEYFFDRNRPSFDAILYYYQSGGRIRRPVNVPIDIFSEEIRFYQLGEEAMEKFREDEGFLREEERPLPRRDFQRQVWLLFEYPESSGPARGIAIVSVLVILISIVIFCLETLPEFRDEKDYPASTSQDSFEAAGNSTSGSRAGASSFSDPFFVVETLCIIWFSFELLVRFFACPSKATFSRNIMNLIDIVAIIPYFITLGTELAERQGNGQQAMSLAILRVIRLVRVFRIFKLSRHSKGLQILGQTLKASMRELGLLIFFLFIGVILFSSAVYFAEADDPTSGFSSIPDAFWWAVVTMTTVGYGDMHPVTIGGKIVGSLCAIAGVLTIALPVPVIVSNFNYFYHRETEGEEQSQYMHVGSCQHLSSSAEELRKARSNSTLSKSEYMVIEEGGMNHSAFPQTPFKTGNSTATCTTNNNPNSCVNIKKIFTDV
pIC50 (log units): -log10 of the concentration in mol/L.

Below, 3 substances whose answers are already recorded.
substance="H-P[Nle]E[Nle]RC(1)[2,4-Diaminobutanoyl]ASVEC(2)KQKC(3)LAAIGSIFGKC(1)[Nle]NKKC(2)KC(3)YPR-OH [Peptide 84]" quantitative_result=10.55
substance="H-S[Nle]D[Nle]RC(1)SASVEC(2)KQKC(3)LKAIGSIFGKC(1)MNKKC(2)KC(3)[F(4-NH2)]PR-NH2 [Peptide 72]" quantitative_result=9.60
substance="H-NMDMRC(1)SASVEC(2)KQKC(3)LYAIGSIFGKC(1)MNKKC(2)KC(3)YPR-NH2 [Peptide 54]" quantitative_result=9.54

# pIC50 (substance: H-NMDMRC(1)SASVEC(2)KQKC(3)LKAIGSKFGKC(1)MNKKC(2)KC(3)YPR-NH2 [Peptide 35] ) is 9.38

# pIC50 (substance: H-NMDMRC(1)SASVEC(2)KQKC(3)LAIGSIFGKC(1)MNKKC(2)KC(3)YPR-NH2 [Peptide 55] ) is 8.62

# pIC50 (substance: H-NMEMRC(1)SASVEC(2)KQKC(3)LKAIGSIFGKC(1)MNKKC(2)KC(3)YPR-OH [Peptide 13] ) is 9.96

# pIC50 (substance: H-N[Nle]D[Nle]RC(1)SASVEC(2)KQKC(3)KAIGSIFGKC(1)[Nle]NKKC(2)KC(3)YPR-NH2 [Peptide 50] ) is 8.87
